System: ACHN renal
Experiment: NCI-60 one-dose screen, 48 h (100 = growth as untreated, 0 = no growth, -100 = all killed)
Conditions: 10 µM unless noted
Procedure: Growth inhibition of the ACHN human tumor cell line is measured as a screen for anti-cancer activity. Cells are grown in 96 well plates and exposed to the test compound for 48 hours. Compounds are tested at a single concentration, which is 10^-5 M for most compounds. The reported endpoint is percent growth (GI% or GIPRCNT), where numbers from 0 - 100% represent growth inhibition, and numbers from -100% - 0 represent cell death. For example, a value of 40 represents 60% growth inhibition. […]
This is part of a sample that, as a whole, favours compounds with a hit. Of some 83,000 tested, about 20% had one in any assay.
API: label(entry) gives class 1 if the entry's growth is strictly smaller than 60%; on equality or larger values it gives class 0.

Some solved cases for reference:
COMPOUND: CC1(C)CC[C@]2(c3nnc(-c4ccncc4)o3)CC[C@]3(C)C(=CC[C@@H]4[C@@]5(C)CCC(=O)C(C)(C)[C@@H]5CC[C@]43C)[C@@H]2C1
CATEGORY LABEL: class 0
//
COMPOUND: Nc1c(C(=O)Nc2cccc3ccccc23)sc2nc3c(cc12)CCCCCC3
CATEGORY LABEL: class 1

API: query returns whether the compound falls strictly under 60% in growth. Query: COc1ccc(Cc2nc(C#N)c(N3CCN(c4ccc(F)cc4)CC3)o2)cc1
class 0

API: query returns whether the compound falls strictly under 60% in growth. Query: CN(C)CSc1nc2ccccc2s1
class 0

API: query returns whether the compound falls strictly under 60% in growth. Query: C=CCn1c(SCC(=O)Nc2ccc(C(=O)/C=C/c3ccc(Cl)cc3)cc2)nnc1-c1cc(OC)c(OC)c(OC)c1
class 0

API: query returns whether the compound falls strictly under 60% in growth. Query: O=c1cc(/C=N\Nc2nc(-c3ccc(Cl)cc3Cl)cs2)c2cc(Cl)ccc2o1
class 0

API: query returns whether the compound falls strictly under 60% in growth. Query: CN1CCN(CC#CCOC(=O)CNC(=O)[C@]23CCC(C)(C)C[C@H]2C2=CC[C@@H]4[C@@]5(C)CC[C@H](O)C(C)(C)[C@@H]5CC[C@@]4(C)[C@]2(C)CC3)CC1
class 0

API: query returns whether the compound falls strictly under 60% in growth. Query: O=c1c2ccccc2oc2ccc(OCCCCCCN3CCCCCC3)cc12
class 0

API: query returns whether the compound falls strictly under 60% in growth. Query: CC(=O)OC[C@]12CC[C@@H](c3cn(Cc4ccc(Cn5cc([C@@H]6CC[C@]7(COC(C)=O)CC[C@]8(C)[C@H](CC[C@@H]9[C@@]%10(C)CC[C@H](OC(C)=O)C(C)(C)[C@@H]%10CC[C@]98C)[C@@H]67)nn5)cc4)nn3)[C@@H]1[C@H]1CC[C@@H]3[C@@]4(C)CC[C@H](OC(C)=O)C(C)(C)[C@@H]4CC[C@@]3(C)[C@]1(C)CC2
class 0

API: query returns whether the compound falls strictly under 60% in growth. Query: COc1ccc(C(C)c2cc(OC)c(OC)c(OC)c2)cc1 (stereo not drawn)
class 1

API: query returns whether the compound falls strictly under 60% in growth. Query: CC(C)(C)c1nn(-c2ccccc2)c2c1COCN2Cc1ccc(Cl)cc1
class 0

API: query returns whether the compound falls strictly under 60% in growth. Query: N#Cc1ccc(N2Cc3cc(Cl)ccc3OC3=C2C(=O)N(Cc2ccccc2)C3=O)cc1
class 1

API: query returns whether the compound falls strictly under 60% in growth. Query: COc1ccc(/C(=N\O)c2cc(C)c(OC)c(C)c2)cc1O
class 1

API: query returns whether the compound falls strictly under 60% in growth. Query: CN(C)CCCn1c2c(c3cc(-c4ccco4)ccc3c1=O)C(=O)c1ccccc1-2
class 1

API: query returns whether the compound falls strictly under 60% in growth. Query: COc1cc(/C=C/C(=O)/C=C/c2cc3ccc(Cl)cc3[nH]c2=O)ccc1O
class 0

API: query returns whether the compound falls strictly under 60% in growth. Query: CCOCCc1c(O)nc(SC)[nH]c1=O
class 0

API: query returns whether the compound falls strictly under 60% in growth. Query: Oc1c(CCl)cc(Cl)cc1Cc1cc(Cl)cc(Cc2cc(Cl)cc(CCl)c2O)c1O
class 1

API: query returns whether the compound falls strictly under 60% in growth. Query: COc1ccccc1Nc1nnc(-c2ccc(Cl)cc2)o1
class 0
